target: BDBV GP on rVSV particles (Bundibugyo virus (BDBV)); test: cell-based or functional assay
readout-kind: IC50 (nM), neutralization of rVSV-GP
Answers are plain numbers, in nM.

binder	unit-descriptor	IC50 (nM), neutralization of rVSV-GP
PE-87 V102A (antibody, V domains shown) VH: QVQLVQSGVTLVQPGGSLRVSCAASGFTFSSYAMSWVRQAPGKGLEWVSAISGLGGSTYYADSVKGRFTISRDNSKNTLYLQMNSLRAEDTAVYYCAKDHRAWAAGYHFDYWGQGALVTVSS VL: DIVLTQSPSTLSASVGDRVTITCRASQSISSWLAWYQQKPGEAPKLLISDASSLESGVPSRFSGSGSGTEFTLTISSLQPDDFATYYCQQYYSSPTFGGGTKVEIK	nM	0.2

Alright, here's another binder for you.
query: Using the record for PE-87 F109A (antibody, V domains shown) VH: QVQLVQSGVTLVQPGGSLRVSCAASGFTFSSYAMSWVRQAPGKGLEWVSAISGLGGSTYYADSVKGRFTISRDNSKNTLYLQMNSLRAEDTAVYYCAKDHRVWAAGYHADYWGQGALVTVSS VL: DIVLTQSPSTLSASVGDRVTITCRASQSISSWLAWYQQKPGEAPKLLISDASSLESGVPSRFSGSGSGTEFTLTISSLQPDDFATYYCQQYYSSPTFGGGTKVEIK , state its measured IC50 (nM), neutralization of rVSV-GP.
result: 0.3
